Examples of molecules with documented IC50 follow.
Molecular target: NAD(+) hydrolase SARM1 (Homo sapiens, UniProt Q6SZW1)
Sequence (Q6SZW1 whole entry): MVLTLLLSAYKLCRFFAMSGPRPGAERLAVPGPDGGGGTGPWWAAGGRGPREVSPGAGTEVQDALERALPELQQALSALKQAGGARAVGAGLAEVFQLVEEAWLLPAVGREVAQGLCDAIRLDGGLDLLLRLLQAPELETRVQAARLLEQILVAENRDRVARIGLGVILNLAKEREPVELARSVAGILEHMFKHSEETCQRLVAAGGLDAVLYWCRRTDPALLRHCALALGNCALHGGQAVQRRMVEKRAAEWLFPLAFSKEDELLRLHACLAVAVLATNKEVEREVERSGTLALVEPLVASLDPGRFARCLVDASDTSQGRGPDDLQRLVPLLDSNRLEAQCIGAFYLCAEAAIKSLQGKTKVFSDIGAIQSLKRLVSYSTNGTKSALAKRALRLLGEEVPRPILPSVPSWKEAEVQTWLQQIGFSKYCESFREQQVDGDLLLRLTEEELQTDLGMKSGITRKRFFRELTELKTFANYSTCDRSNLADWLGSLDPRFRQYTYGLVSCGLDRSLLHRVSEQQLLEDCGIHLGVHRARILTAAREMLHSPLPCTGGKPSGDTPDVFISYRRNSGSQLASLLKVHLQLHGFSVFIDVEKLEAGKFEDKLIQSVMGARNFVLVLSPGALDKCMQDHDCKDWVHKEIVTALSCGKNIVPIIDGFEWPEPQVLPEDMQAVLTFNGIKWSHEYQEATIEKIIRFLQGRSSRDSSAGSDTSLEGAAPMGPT

• CC1CC2CC(C1)N2C(=O)Nc1ccc(Cl)c([C@@H]2CC[C@H]2n2ccnn2)c1 (relative stereo) = < 1000 nM
• Cc1nnc(C23CC(C)CC(C2)N3C(=O)Nc2ccc(C(F)(F)F)c(C3CCC3)c2)o1 (centres undefined) = < 1000 nM
• CC1CC2CC(C1)N2C(=O)Nc1ccc(Cl)c(C2(F)CCC2)c1 (centres undefined) = < 1000 nM
• CC1CC2CC(C1)N2C(=O)Nc1ccc(Cl)c([C@H]2C[C@H](F)C2)c1 (some centres undefined) = < 1000 nM
• N#C[C@@H]1CC[C@@H]1c1cc(NC(=O)N2C3CC2CC(C(F)(F)F)C3)ccc1C(F)(F)F (some centres undefined) = < 1000 nM

# evaluate next
The molecule identified as O=C(Nc1ccc(Cl)c(N2CC(O)C2)c1)N1C2CC1CC(C(F)(F)F)C2 (centres undefined) registered its IC50 at < 1000 nM
